test: Pharmacokinetics of five main constituents in immunosuppressive mice plasma after oral administration of RA (HPLC-MS/MS); format: in vivo, Balb/c mice; conditions: male, mouse; oral RA extract 6 g/kg BW; immunosuppressive Balb/c mice plasma; read-out: t1/2z (converted)
PROPERTY: half-life (h)

COc1ccc(-c2coc3cc(O)ccc3c2=O)cc1O [Peak 37, Calycosin] ... 2.21
COc1ccc(-c2coc3cc(O[C@@H]4O[C@H](CO)[C@@H](O)[C@H](O)[C@H]4O)ccc3c2=O)cc1O (single isomer, unassigned) [Peak 29, Calycosin-7-O-glucoside] ... 2.61
COc1ccc(-c2coc3cc(O[C@@H]4O[C@H](CO)[C@@H](O)[C@H](O)[C@H]4O)ccc3c2=O)cc1 (single isomer, unassigned) [Peak 33, Ononin] ... 1.96

###

assay: Pharmacokinetics of five main constituents in immunosuppressive mice plasma after oral administration of RA (HPLC-MS/MS); type: in vivo, Balb/c mice; settings: male, Balb/c, mouse, in vivo, po, 6 g/kg
PROPERTY: AUC(0-t) (ng·h/mL)
Note: unit ng·h/mL is implicit; provide only the numeric part.

input: Given COc1ccc(-c2coc3cc(O)ccc3c2=O)cc1 [Peak 39, Formononetin] , state its recorded AUC(0-t).
output: 233

###

assay: Pharmacokinetics of five main constituents in immunosuppressive mice plasma after oral administration of RA (HPLC-MS/MS); format: in vivo, Balb/c mice; conditions: male, mouse; oral RA extract 6 g/kg BW; immunosuppressive Balb/c mice plasma; read-out: AUC(0–∞)
PROPERTY: AUC(0-inf) (ng·h/mL)

COc1ccc(-c2coc3cc(O[C@@H]4O[C@H](CO)[C@@H](O)[C@H](O)[C@H]4O)ccc3c2=O)cc1O (single isomer, unassigned) [Peak 29, Calycosin-7-O-glucoside] ... 127

P: COc1ccc(-c2coc3cc(O)ccc3c2=O)cc1O [Peak 37, Calycosin]
Q: COc1ccc(-c2coc3cc(O[C@@H]4O[C@H](CO)[C@@H](O)[C@H](O)[C@H]4O)ccc3c2=O)cc1 (single isomer, unassigned) [Peak 33, Ononin]
input: When their AUC(0-inf) values are compared, which is larger, P or Q ? I would appreciate it if you answered with the label of your choice.
output: Q

###

test: Pharmacokinetics of five main constituents in immunosuppressive mice plasma after oral administration of RA (HPLC-MS/MS); type: in vivo, Balb/c mice; details: male, mouse, in vivo, 6 g/kg BW; oral RA; immunosuppressive Balb/c mice plasma; read-out: Cmax
PROPERTY: Cmax (µg/mL)
Your answer should be a plain number; it is taken to be in µg/mL.

input: Look up Cmax for this compound: CC(C)(O)[C@@H]1CC[C@](C)(C2[C@@H](O)C[C@@]3(C)[C@@H]4C[C@H](O[C@@H]5O[C@H](CO)[C@@H](O)[C@H](O)[C@H]5O)C5C(C)(C)[C@@H](O[C@@H]6OC[C@@H](O)[C@H](O)[C@H]6O)CC[C@@]56C[C@@]46CC[C@]23C)O1 (single isomer, unassigned) [Peak 45, Astragaloside IV]
output: 0.129

###

assay: Pharmacokinetics of five main constituents in immunosuppressive mice plasma after oral administration of RA (HPLC-MS/MS); format: in vivo, Balb/c mice; conditions: male, Balb/c, mouse, in vivo, po, 6 g/kg
PROPERTY: AUC(0-inf) (ng·h/mL)
Report as a plain number; the unit ng·h/mL is understood.

input: Please give the measured AUC(0-inf) for this compound: COc1ccc(-c2coc3cc(O)ccc3c2=O)cc1 [Peak 39, Formononetin]
output: 256

###

experiment: Pharmacokinetics of five main constituents in immunosuppressive mice plasma after oral administration of RA (HPLC-MS/MS); assay type: in vivo, Balb/c mice; settings: male, mouse, in vivo; oral RA extract 6 g/kg BW; immunosuppressive Balb/c mice plasma; read-out: AUC(0–∞)
PROPERTY: AUC(0-inf) (ng·h/mL)
Give your result in ng·h/mL as a bare value.

input: Please report the recorded AUC(0-inf) for CC(C)(O)[C@@H]1CC[C@](C)(C2[C@@H](O)C[C@@]3(C)[C@@H]4C[C@H](O[C@@H]5O[C@H](CO)[C@@H](O)[C@H](O)[C@H]5O)C5C(C)(C)[C@@H](O[C@@H]6OC[C@@H](O)[C@H](O)[C@H]6O)CC[C@@]56C[C@@]46CC[C@]23C)O1 (single isomer, unassigned) [Peak 45, Astragaloside IV] .
output: 722

###

experiment: Pharmacokinetics of five main constituents in immunosuppressive mice plasma after oral administration of RA (HPLC-MS/MS); assay type: in vivo, Balb/c mice; settings: male, mouse, in vivo; oral RA extract 6 g/kg BW; immunosuppressive Balb/c mice plasma; 0-36 h; read-out: AUC(0–t)
PROPERTY: AUC(0-t) (ng·h/mL)
Field: numeric (ng·h/mL). Do not append units.

input: Record request: AUC(0-t) value, item CC(C)(O)[C@@H]1CC[C@](C)(C2[C@@H](O)C[C@@]3(C)[C@@H]4C[C@H](O[C@@H]5O[C@H](CO)[C@@H](O)[C@H](O)[C@H]5O)C5C(C)(C)[C@@H](O[C@@H]6OC[C@@H](O)[C@H](O)[C@H]6O)CC[C@@]56C[C@@]46CC[C@]23C)O1 (single isomer, unassigned) [Peak 45, Astragaloside IV]
output: 695

###

test: Profiling of absorbed constituents and metabolites in mice plasma after oral administration of RA (UFLC-DAD-Q-TOF-MS/MS); conditions: oral RA extract 6 g/kg BW; cyclophosphamide-induced immunosuppressed Balb/c mice; plasma sampled 0.25-36 h; '-' = not detected
PROPERTY: Source: Dosed Plasma (time points at which the compound was detected)

Some molecules with known Source: Dosed Plasma (time points at which the compound was detected) results, for comparison:
CC(C)(O)[C@@H]1CC[C@](C)([C@H]2[C@@H](O)C[C@@]3(C)[C@@H]4C[C@H](O[C@@H]5O[C@H](CO)[C@@H](O)[C@H](O)[C@H]5O)[C@H]5C(C)(C)[C@@H](O[C@@H]6OC[C@@H](O)[C@H](O)[C@H]6O[C@@H]6O[C@H](CO)[C@@H](O)[C@H](O)[C@H]6O)CC[C@@]56C[C@@]46CC[C@]23C)O1 (single isomer, unassigned; peak 41) [Peak 41, Astragaloside VI] ... 0.25 to 24 h
N[C@@H](Cc1c[nH]c2ccccc12)C(=O)O (single isomer, unassigned) [Peak 14, Tryptophan] ... 0.25 to 36 h
NC(=O)C[C@H](N)C(=O)O (single isomer, unassigned) [Peak 2, Asparagine] ... 1 to 36 h
O=c1cc(-c2ccc(O)cc2)oc2cc(O[C@@H]3O[C@H](CO)[C@@H](O)[C@H](O)[C@H]3O)cc(O)c12 (single isomer, unassigned) [Peak 30, Cosmosiin] ... 0.25 to 36 h
NCCCC(=O)O [Peak 5, γ-Aminobutyric acid] ... 0.25 to 36 h

input: Any idea what its Source: Dosed Plasma (time points at which the compound was detected) is? The molecule is CC(C)C[C@H](N)C(=O)O (single isomer, unassigned) [Peak 9, Leucine]
output: 0.25 to 36 h

input: Can you handle N[C@@H](Cc1ccccc1)C(=O)O (single isomer, unassigned) [Peak 11, Phenylalanine] next?
output: 0.25 to 36 h

input: COc1ccc(-c2coc3cc(O[C@@H]4O[C@H](CO)[C@@H](O)[C@H](O)[C@H]4O)ccc3c2=O)cc1O (single isomer, unassigned) [Peak 29, Calycosin-7-O-glucoside] ?
output: 0.25 to 24 h

###

experiment: Profiling of absorbed constituents and metabolites in mice plasma after oral administration of RA (UFLC-DAD-Q-TOF-MS/MS); conditions: oral RA extract 6 g/kg BW; cyclophosphamide-induced immunosuppressed Balb/c mice; plasma sampled 0.25-36 h; '-' = not detected
Recorded Source: Dosed Plasma (time points at which the compound was detected) values for a group of compounds are listed next.

COc1cc(C(=O)O)cc(OC)c1O [Peak 20, Syringic acid] ... 0.25 to 36 h
COc1cc(O)c2c(=O)c(O[C@@H]3O[C@H](CO)[C@@H](O)[C@H](O)[C@H]3O)c(-c3ccc(O[C@@H]4O[C@H](CO)[C@@H](O)[C@H](O)[C@H]4O)cc3)oc2c1 (single isomer, unassigned) [Peak 18, Rhamnocitrin 3,4'-di-O-glucoside] ... 0.25 to 6 h
O=C(O)CCCCCCCC(=O)O [Peak 32, Azelaic acid] ... 0.25 to 36 h

input: What measured Source: Dosed Plasma (time points at which the compound was detected) goes with COc1ccc(/C=C/C(=O)O)cc1O [Peak 27, Isoferulic acid] ?
output: 0.25 to 36 h

input: Same lookup for COc1ccc(-c2coc3cc(O)ccc3c2=O)cc1 [Peak 39, Formononetin] , please.
output: 0.25 to 24 h

input: What do you have for C[N+](C)(C)CCO [Peak 4, Choline] ?
output: 0.25 to 36 h

###

assay: Profiling of absorbed constituents and metabolites in mice plasma after oral administration of RA (UFLC-DAD-Q-TOF-MS/MS); conditions: oral RA extract 6 g/kg BW; cyclophosphamide-induced immunosuppressed Balb/c mice; plasma sampled 0.25-36 h; '-' = not detected
Items are presented alongside their recorded Source: Dosed Plasma (time points at which the compound was detected).

C[C@@H]1O[C@@H](O[C@H]2[C@H](O[C@H]3[C@H](O[C@H]4CC[C@@]5(C)[C@@H](CC[C@]6(C)[C@@H]5CC=C5[C@@H]7CC(C)(C)C[C@@H](O)[C@]7(C)CC[C@]56C)[C@@]4(C)CO)O[C@H](C(=O)O)[C@@H](O)[C@@H]3O)O[C@H](CO)[C@H](O)[C@@H]2O)[C@H](O)[C@H](O)[C@H]1O (single isomer, unassigned) [Peak 47, Soyasaponin I] ... 0.25 to 24 h

Proceeding to the next compound to report its Source: Dosed Plasma (time points at which the compound was detected).
input: Name the recorded Source: Dosed Plasma (time points at which the compound was detected) for COc1ccc(-c2coc3cc(O[C@@H]4O[C@H](COC(C)=O)[C@@H](O)[C@H](O)[C@H]4O)ccc3c2=O)cc1 (single isomer, unassigned) [Peak 38, 6'-O-acetyl ononin] .
output: 0.25 to 8 h
